- subjectOfTest: Escherichia coli LpxC enzyme (Escherichia coli, UniProt P0A725)
- Construct: made in house; host or cells: Escherichia coli
- procedureText: Inhibitory activity on Escherichia coli LpxC enzyme (fluorescamine method)
- Format: biochemical
- testParameters: fluorescamine detection; 3.1 nmol/L enzyme, 20 μmol/L substrate, pH 6.5, 120 min; read-out: IC50 (inhibitory activity on Escherichia coli LpxC enzyme, Fluoresamine method)
One threshold, 100 nM, splits the recorded IC50 values: lower ones are Fulfilled, equal or higher ones are Not fulfilled.

• C[C@H](O)c1nccn1Cc1cc(-c2ccc(C#CC3COC3)cc2)on1 = Fulfilled
• C[C@H](O)c1nccn1Cc1cc(-c2ccc(C#C[C@@H]3[C@H]4CN(C(N)=O)C[C@@H]34)cc2)on1 = Fulfilled
• C[C@H](O)c1nccn1Cc1cc(-c2ccc(C#C[C@@H]3[C@H]4CN(C(=O)C(O)CO)C[C@@H]34)cc2)on1 (stereo partly shown) = Fulfilled
• CNCCC(=O)N1C[C@@H]2[C@@H](C#Cc3ccc(-c4cc(Cn5ccnc5[C@H](C)O)no4)cc3)[C@@H]2C1 = Not fulfilled
• C[C@H](O)c1nccn1Cc1cc(-c2ccc(C#C[C@@H]3[C@H]4CNC[C@@H]34)cc2)no1 = Not fulfilled
• C[C@H](O)c1nccn1Cc1cc(-c2ccc(C#C[C@@H]3[C@H]4CN(C(=O)C(=O)N(C)C)C[C@@H]34)cc2)on1 = Not fulfilled

----------
- subjectOfTest: Escherichia coli LpxC enzyme (Escherichia coli)
- Construct: made in house; host or cells: Escherichia coli
- Sequence (P0A725 1-305): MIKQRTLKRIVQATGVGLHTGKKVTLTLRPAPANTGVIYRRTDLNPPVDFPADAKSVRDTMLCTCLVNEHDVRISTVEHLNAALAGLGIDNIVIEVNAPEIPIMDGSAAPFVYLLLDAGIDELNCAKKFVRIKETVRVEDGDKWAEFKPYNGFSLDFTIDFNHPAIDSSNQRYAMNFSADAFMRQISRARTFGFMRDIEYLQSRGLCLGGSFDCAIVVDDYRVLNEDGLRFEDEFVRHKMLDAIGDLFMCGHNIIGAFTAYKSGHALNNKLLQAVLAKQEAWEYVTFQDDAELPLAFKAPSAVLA
- procedureText: Inhibitory activity on Escherichia coli LpxC enzyme (fluorescamine method)
- Type: biochemical
- testParameters: fluorescamine detection; 3.1 nmol/L enzyme, 20 μmol/L substrate, pH 6.5, 120 min; read-out: IC50 (inhibitory activity on Escherichia coli LpxC enzyme, Fluoresamine method)
pIC50: −log10 of the molar value.
measurementType: pIC50

- C[C@H](O)c1nccn1[C@H](CN(C)C)c1cc(-c2ccc(C#C[C@@H]3[C@H]4CN(CCO)C[C@@H]34)cc2)on1 [Compound 39]: 5.74
- C[C@H](O)c1nccn1Cc1cc(-c2ccc(C#CCCCO)cc2)on1 [Compound 1]: 7.29
- COCC(O)CN1C[C@@H]2[C@@H](C#Cc3ccc(-c4cc(Cn5ccnc5[C@H](C)O)no4)cc3)[C@@H]2C1 (some centres unmarked) [Compound 57]: 7.15
- COCC#Cc1ccc(-c2cc(Cn3ccnc3[C@H](C)O)no2)cc1 [Compound 53]: 7.09
- C[C@H](O)c1nccn1Cc1cc(-c2ccc(C#C[C@@H]3[C@H]4CN(C[C@H](O)CO)C[C@@H]34)cc2)on1 [Compound 11]: 6.99
- CC(=O)N[C@H]1C[C@H](C#Cc2ccc(-c3cc(Cn4ccnc4[C@H](C)O)no3)cc2)C1 [Compound 87]: 7.60
- C[C@H](O)c1nccn1Cc1cc(-c2ccc(C#CC3CC(N(C)C)C3)cc2)on1 (some centres unmarked) [Compound 97]: 7.00
- C[C@H](O)c1nccn1Cc1cc(-c2ccc(C#C[C@@H]3[C@H]4CN(CCC(=O)O)C[C@@H]34)cc2)on1 [Compound 114]: 6.54
- COCC1CC1C#Cc1ccc(-c2cc([C@@H](CN)n3ccnc3[C@H](C)O)no2)cc1 (relative stereo) [Compound 74]: 7.40
- C[C@H](O)c1nccn1Cc1cc(-c2ccc(C#CC3CN(C(=O)OC(C)(C)C)C3)cc2)on1 [Compound 68]: 7.87
- CCN1C[C@@H]2[C@@H](C#Cc3ccc(-c4cc(Cn5ccnc5[C@H](C)O)no4)cc3)[C@@H]2C1 [Compound 99]: 7.04
- C[C@H](O)c1nccn1Cc1cc(-c2ccc(C#C[C@@H]3[C@H]4CN(CCN)C[C@@H]34)cc2)on1 [Compound 122]: 7.07
- C[C@H](O)C(=O)N1C[C@@H]2[C@@H](C#Cc3ccc(-c4cc(Cn5ccnc5[C@H](C)O)no4)cc3)[C@@H]2C1 [Compound 77]: 7.17
- CNC(=O)N1C[C@@H]2[C@@H](C#Cc3ccc(-c4cc(Cn5ccnc5[C@H](C)O)no4)cc3)[C@@H]2C1 [Compound 92]: 7.26

----------
pIC50 reference
- subjectOfTest: Escherichia coli LpxC enzyme (Escherichia coli, UniProt P0A725)
- Construct: made in house; host or cells: Escherichia coli
- procedureText: Inhibitory activity on Escherichia coli LpxC enzyme (LCMS method)
- Assay type: biochemical
- testParameters: LC-MS/MS detection; 3.1 nmol/L enzyme, 20 μmol/L substrate, pH 6.5, 120 min; read-out: IC50 (inhibitory activity on Escherichia coli LpxC enzyme, LCMS method)
- Text: Test Example 3 Evaluation of the Inhibitory Activity on Escherichia coli LpxC Enzyme (LCMS Method) To assay the activity of Escherichia coli LpxC enzyme, LpxC was reacted with its substrate, UDP-3-O-(R-3-hydroxymyristoyl)-N-acetylglucosamine, and the amount of the reaction product was quantified by liquid chromatography tandem mass spectrometry. […]
pIC50: −log10 of the molar value.
measurementType: pIC50

- C[C@H](O)c1nccn1Cc1cc(-c2ccc(C#CC3(N)CC3)cc2)no1 [Compound 27]: 6.71
- C[C@H](O)c1nccn1Cc1cc(-c2ccc(C#CC34CC(N)(C3)C4)cc2)no1 [Compound 28]: 7.19
- C[C@H](O)c1nccn1[C@H](CN)c1cc(-c2ccc(C#CC34CC(N)(C3)C4)cc2)on1 [Compound 20]: 6.55
- C[C@H](O)c1nccn1[C@H](CN)c1cc(-c2ccc(C#CC3(N)CC3)cc2)on1 [Compound 21]: 6.55
- C[C@H](O)c1nccn1Cc1cc(-c2ccc(C#CC3CC3CN)cc2)on1 (stereo in doubt) [Compound 8]: 7.17
- C[C@H](O)c1nccn1Cc1cc(-c2ccc(C#CC3CC(N)(C(N)=O)C3)cc2)on1 (stereo partly drawn) [Compound 25]: 7.28
- C[C@H](O)c1nccn1Cc1cc(-c2ccc(C#CC3(N)COC3)cc2)on1 [Compound 40]: 6.85
- C[C@H](O)c1nccn1[C@H](CN)c1cc(-c2ccc(C#C[C@@H]3[C@H]4CN(CCO)C[C@@H]34)cc2)on1 [Compound 22]: 6.18
- C[C@H](O)c1nccn1Cc1cc(-c2ccc(C#CC34CC(N)(C3)C4)cc2)on1 [Compound 17]: 7.31

----------
- subjectOfTest: Escherichia coli LpxC enzyme (Escherichia coli, UniProt P0A725)
- Construct: made in house; host or cells: Escherichia coli
- procedureText: Inhibitory activity on Escherichia coli LpxC enzyme (fluorescamine method)
- Format: biochemical
- testParameters: fluorescamine detection; 3.1 nmol/L enzyme, 20 μmol/L substrate, pH 6.5, 120 min; read-out: IC50 (inhibitory activity on Escherichia coli LpxC enzyme, Fluoresamine method)
pIC50: −log10 of the molar value.
measurementType: pIC50

* C[C@H](O)c1nccn1Cc1cc(-c2ccc(C#CC3(C)CN(C)C3)cc2)on1 [Compound 35] | 6.09
* C[C@H](O)c1nccn1[C@H](CN)c1cc(-c2ccc(C#CC3CC3)cc2)no1 [Compound 82] | 7.09
* C[C@H](O)c1nccn1Cc1cc(-c2ccc(C#CCO)cc2)on1 [Compound 48] | 6.44
* C[C@H](O)c1nccn1Cc1cc(-c2ccc(C#CC3(C)COC3)cc2)on1 [Compound 47] | 7.71
* C[C@H](O)c1nccn1Cc1cc(-c2ccc(C#C[C@@H]3[C@H]4CN(C=O)C[C@@H]34)cc2)on1 [Compound 73] | 7.41
* C[C@H](O)c1nccn1Cc1cc(-c2ccc(C#CCCCO)c(F)c2)on1 [Compound 2] | 7.77
* C[C@H](O)c1nccn1Cc1cc(-c2ccc(C#CC3CC(NC4CC4)C3)cc2)on1 (stereo partly shown) [Compound 98] | 7.29
* C[C@H](O)c1nccn1Cc1cc(-c2ccc(C#CC3CN(C[C@H](O)CO)C3)cc2)on1 [Compound 13] | 6.19
* CC(O)CN1CCC(C#Cc2ccc(-c3cc(Cn4ccnc4[C@H](C)O)no3)cc2)CC1 (stereo partly shown) [Compound 128] | 6.48
* CC(=O)N1CC(C#Cc2ccc(-c3cc(Cn4ccnc4[C@H](C)O)no3)cc2)C1 [Compound 69] | 7.27
* C[C@H](O)c1nccn1Cc1cc(-c2ccc(C#C[C@@H]3[C@H]4CN(CCCCC(=O)O)C[C@@H]34)cc2)on1 [Compound 93] | 6.43
* C[C@H](O)c1nccn1Cc1cc(-c2ccc(C#CC3(O)CC3)cc2)on1 [Compound 52] | 7.08
* C[C@H](O)c1nccn1Cc1cc(-c2ccc(C#CC3CC3CO)cc2)on1 (stereo in doubt) [Compound 7] | 7.81
* COCC(O)CN1C[C@@H]2[C@@H](C#Cc3ccc(-c4cc(Cn5ccnc5[C@H](C)O)on4)cc3)[C@@H]2C1 (stereo partly shown) [Compound 85] | 7.01
* C[C@H](O)c1nccn1Cc1cc(-c2ccc(C#C[C@@H]3[C@H]4CN(S(N)(=O)=O)C[C@@H]34)cc2)on1.Cl [Compound 81, hydrochloride] | 7.16
* C[C@H](O)c1nccn1Cc1cc(-c2ccc(C#CC(C)(C)O)cc2)on1 [Compound 32] | 6.47
